What follows is a collection of IC50 values obtained with Glycogen synthase kinase-3 alpha (Homo sapiens, UniProt P49840).
Sequence (P49840 whole entry): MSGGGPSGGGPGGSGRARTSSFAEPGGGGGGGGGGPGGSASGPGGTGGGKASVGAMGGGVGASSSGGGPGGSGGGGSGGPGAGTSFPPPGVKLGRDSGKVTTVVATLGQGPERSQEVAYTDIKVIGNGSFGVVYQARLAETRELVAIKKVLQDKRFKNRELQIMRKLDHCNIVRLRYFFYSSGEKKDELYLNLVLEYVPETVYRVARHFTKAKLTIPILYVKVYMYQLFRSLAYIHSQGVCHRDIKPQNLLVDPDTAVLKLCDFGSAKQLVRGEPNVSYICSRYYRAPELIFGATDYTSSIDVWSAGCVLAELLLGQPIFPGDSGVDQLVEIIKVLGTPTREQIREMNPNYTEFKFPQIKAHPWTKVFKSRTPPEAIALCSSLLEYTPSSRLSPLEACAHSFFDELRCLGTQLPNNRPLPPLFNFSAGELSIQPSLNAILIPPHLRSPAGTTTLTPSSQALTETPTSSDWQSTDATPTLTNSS

Below, each entry is followed by its recorded IC50 result.
CC[C@@]1(c2cccc(N3CCC3(C)C)c2)C2=CN=NC2NC2=C1C(=O)CC(C)(C)C2 (stereo partly specified) ... 100 to 1000 nM
CC[C@@]1(c2cccc(-c3cnn(C)c3C)c2)C2=C(CC(C)(C)CC2=O)NC2N=NC(C)=C21 (stereo partly specified) ... 100 to 1000 nM
CCC1(c2cccc(N(C)c3cccc(F)n3)c2)C2=CN=NC2NC2=C1C(=O)CC(C)(C)C2 (stereo unspecified) ... < 100 nM
CC[C@@]1(c2cccc(-c3ccccc3)c2)C2=CN=NC2NC2=C1C(=O)CC(C)(C)C2 (stereo partly specified) ... < 100 nM

[in] Given the molecule CC1(C)CC(=O)C2=C(C1)NC1=C(C(C3CC3)N=N1)C21CN(S(=O)(=O)CC2CC2)C1 (stereo unspecified) , write its reported IC50.
[out] 100 to 1000 nM

[in] // Input: CC[C@@]1(c2cccc(S(=O)(=O)CC3CC3)c2)C2=C(CC(C)(C)NC2=O)NC2N=NC(C(F)(F)F)=C21 (stereo partly specified) . Output its IC50 only.
[out] 100 to 1000 nM

====

System Under Test: UniProt P49841
Sequence (P49841 whole entry): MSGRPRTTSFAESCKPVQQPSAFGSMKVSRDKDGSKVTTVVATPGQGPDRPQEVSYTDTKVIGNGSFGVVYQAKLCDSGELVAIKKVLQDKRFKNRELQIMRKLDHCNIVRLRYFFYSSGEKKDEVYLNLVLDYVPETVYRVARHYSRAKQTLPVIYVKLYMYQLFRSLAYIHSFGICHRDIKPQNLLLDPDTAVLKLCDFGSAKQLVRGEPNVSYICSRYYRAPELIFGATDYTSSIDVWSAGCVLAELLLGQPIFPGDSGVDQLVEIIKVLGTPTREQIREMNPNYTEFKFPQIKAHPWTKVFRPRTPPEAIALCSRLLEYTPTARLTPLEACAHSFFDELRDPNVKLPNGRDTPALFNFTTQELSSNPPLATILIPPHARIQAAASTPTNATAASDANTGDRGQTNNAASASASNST
IC50 reference

Example results:
CC1(C)CC(=O)C2=C(C1)NC1=C(CN=N1)C2(C)c1cc(F)cc(F)c1 (stereo not drawn) [US20250313563, Compound 785735] ... > 5000 nM
CC1(C)CC(=O)C2=C(NC3=C(CN=N3)[C@]23CC[C@@H](C(F)(F)F)CC3)C1F (stereo partly drawn) [US20250313563, Compound 917135] ... 100 to 1000 nM

[in] Note down IC50 recorded for CC[C@@]1(c2cccc(-c3cnn(C4CC4)c3)c2)C2=CN=NC2NC2=C1C(=O)CC(C)(C)C2 (stereo partly drawn) [US20250313563, Compound 913041]
[out] > 5000 nM

====

Let's go through some recorded pIC50 values for Glycogen synthase kinase-3 alpha (Homo sapiens, UniProt P49840) together.
pIC50: −log10 of the molar value.

CCC1(c2cccc(-c3ccnn3C)c2)C2=C(CC(C)(C)CC2=O)NC2N=NC(C(F)(F)F)=C21 (stereo not drawn) [US20250313563, Compound 945531] ... > 7.00
CC[C@@]1(c2cccc(OC)c2)C2=C(CC(C)(C)NC2=O)NC2N=NC(C)=C21 (stereo partly drawn) [US20250313563, Compound 949337] ... 6.00 to 7.00

[in] Name the value of pIC50 reported for CC[C@]1(c2cccc(C(F)(F)F)c2)C2=CN=NC2NC2=C1C(=O)N(c1cnc(OC)nc1)[C@@H](C)C2 (stereo partly drawn) [US20250313563, Compound 949352] when tested on Glycogen synthase kinase-3 alpha (Homo sapiens, UniProt P49840).
[out] 6.00 to 7.00

[in] // fetch pIC50 for CC[C@]1(c2cccc(-c3cc(C)nnc3C)c2)C2=C(CC(C)(C)NC2=O)NC2N=NC(C)=C21 (stereo partly drawn) [US20250313563, Compound 949332] ; system: Glycogen synthase kinase-3 alpha (Homo sapiens, UniProt P49840)
[out] 5.30 to 6.00

[in] Enter pIC50 (test system Glycogen synthase kinase-3 alpha (Homo sapiens, UniProt P49840)) for CC[C@@]1(c2ccccc2)C2=CN=NC2NC2=C1C(=O)C[C@H](C(F)(F)F)C2 (stereo partly drawn) [US20250313563, Compound 806608]
[out] 6.00 to 7.00

[in] Specify pIC50 for CC1(C)CC(=O)C2=C(C1)NC1=C(CN=N1)C21CCC2(CC2)CC1 [US20250313563, Compound 893312] , system Glycogen synthase kinase-3 alpha (Homo sapiens, UniProt P49840).
[out] > 7.00

[in] Fill in: pIC50 on Glycogen synthase kinase-3 alpha (Homo sapiens, UniProt P49840), entry CC1(C)CC(=O)C2=C(C1)NC1=C(CN=N1)[C@]21C[C@@]2(CCN(CC(F)F)C2)C1 [US20250313563, Compound 913139]
[out] 6.00 to 7.00

[in] Specify pIC50 for CCC1(c2cccc(C(F)(F)C(F)(F)F)c2)C2=CN=NC2NC2=C1C(=O)CC(C)(C)C2 (stereo not drawn) [US20250313563, Compound 948615] , system Glycogen synthase kinase-3 alpha (Homo sapiens, UniProt P49840).
[out] > 7.00

[in] Provide pIC50, system Glycogen synthase kinase-3 alpha (Homo sapiens, UniProt P49840), entry CC[C@@]1(c2cccc(-c3cc(C)nn3C)c2)C2=CN=NC2NC2=C1C(=O)CC(C)(C)[C@@H]2F (stereo partly drawn) [US20250313563, Compound 947657]
[out] 6.00 to 7.00

[in] Look up Glycogen synthase kinase-3 alpha (Homo sapiens, UniProt P49840) data: pIC50 of CC[C@]1(c2cccc(S(C)(=O)=O)c2)C2=C(CC(C)(C)NC2=O)NC2N=NC(C)=C21 (stereo partly drawn) [US20250313563, Compound 947811] , then report it.
[out] > 7.00

[in] Give pIC50 for CCC1(c2cccc(C(F)(F)F)c2)C2=CN=NC2NC2=C1C(=O)NC(C(C)(C)C)C2 (stereo not drawn) [US20250313563, Compound 945635] tested on Glycogen synthase kinase-3 alpha (Homo sapiens, UniProt P49840).
[out] > 7.00

[in] Consider the molecule C[S@+]([O-])c1cccc([C@]2(C)C3=C(CC(C)(C)CC3=O)NC3=C2C(CC(C)(C)C)N=N3)c1 (stereo partly drawn) [US20250313563, Compound 126190] tested on Glycogen synthase kinase-3 alpha (Homo sapiens, UniProt P49840); state its pIC50.
[out] 5.30 to 6.00

[in] Jot down pIC50 (Glycogen synthase kinase-3 alpha (Homo sapiens, UniProt P49840)) of CCN(c1cccc(C2(CC)C3=CN=NC3NC3=C2C(=O)CC(C)(C)C3)c1)c1ncccn1 (stereo not drawn) [US20250313563, Compound 919840] .
[out] > 7.00
